- method: Inhibition of alpha-glucosidase (unknown origin) using p-nitrophenyl-alpha-D-glucopyranoside as substrate preincubated for 15 mins followed by substrate addition and measured after 30 mins by multiplate spectrophotometric analysis
- Set-up: species or system Homo sapiens
assay metric: pIC50
// pIC50: -log10(molar conc.)

Below are worked cases with known answers.
{"molecule": "CCCCCCSc1nc2ccccc2n1CC(=O)NN1C(=O)CSC1c1ccc(C=O)cc1 (stereo not drawn)", "pIC50": 5.24}
{"molecule": "CCCCCCSc1nc2ccccc2n1CC(=O)NN1C(=O)CSC1c1ccc(O)c(OC)c1 (stereo not drawn)", "pIC50": 4.99}

Need pIC50, item CCCCCCSc1nc2ccccc2n1CC(=O)NN1C(=O)CSC1c1ccc([N+](=O)[O-])cc1 (stereo not drawn)
5.28
